EXPERIMENTAL_PROTOCOL: Selectivity ratio of IC50 for GAT3 to IC50 for GAT1
MEASURE_NAME: Ratio IC50
Please reply with the value in numeric form only.

INSERT INTO measurements (compound, measure_name, reading) VALUES
  ('COc1ccc(C(OCCN2CCC[C@H](C(=O)O)C2)(c2ccc(OC)cc2)c2ccc(OC)cc2)cc1', 'Ratio IC50', 78),
  ('COc1ccc(C(OCCN2CCC[C@@H]2CC(=O)O)(c2ccc(OC)cc2)c2ccc(OC)cc2)cc1', 'Ratio IC50', 22),
  ('Cc1ccsc1C(=CCCN1CCC1CC(=O)O)c1sccc1C (racemic)', 'Ratio IC50', 48);

Lookup: Suppose we examine the compound O=C(O)C1CNC1 ; what Ratio IC50 value has been reported?
Found: 34

Lookup: Which Ratio IC50 is reported for this compound? O=C(O)CC1CCN1CCC=C(c1ccccc1)c1ccccc1 (racemic)
Found: 11
